assay-summary: gradient 5% acetonitrile 3 min, to 50% in 2 min, to 85% in 15 min, held 3 min, 100 µL/min
applied-conditions: column: Zorbax Extend-C18 2.1 x 50 mm; eluents: water / acetonitrile, 0.1% formic acid
Parameter RP-LC retention time: see the listing below.
Return type: number; implicit unit s.

Answered cases to consult:
{"compound": "CCOC(=O)C1=C(CN2CCC(C(=O)OCC)CC2)NC(=O)NC1c1ccccc1 (centres undefined)", "RP-LC retention time [s]": 643}
{"compound": "O=C(NCc1ccccc1)N1CCC(OCc2nc(C3CC3)no2)CC1", "RP-LC retention time [s]": 776}
{"compound": "CCN1CCN(CCNC(=O)Cn2ccc3c(C)nn(CC)c3c2=O)CC1", "RP-LC retention time [s]": 557}

For the next question, use this compound.
Provide measured RP-LC retention time value, entry: COc1ccc(-c2noc(C3CC(=O)N(c4ccc(C)c(F)c4)C3)n2)cc1OC (centres undefined) 984
